B1: mRNA-splicing (parent)
chain: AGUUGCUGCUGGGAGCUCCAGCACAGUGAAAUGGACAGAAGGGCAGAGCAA

- Variants of: B1
- Protocol summary: exon inclusion enrichment index; higher = more inclusion; WT1 exon 5 minigene, HEK293
Please enter y where exon inclusion enrichment index is greater than or equal to 2, and n where it is lower.

Solved cases (5 shown):
G5C C6U G8C C9U U10C G11A; n
A47G G48U; n
U3A U4C G5U G8U C9U; n
G5U C6U; n
G5A U7C G8A U10C G15U C16A; n

Q) I'd appreciate it if you could say whether C6A U7C C9A U10C G12C has exon inclusion enrichment index at least equal to 2.
A) y

Q) How about this variant: G5A C6G U7G C9A G42A G43A
A) n

Q) Proceed to G5A C6G U7G C9A G46U A47G
A) n

Q) Record: C6A U7A C9A U10A G28A A29U
A) n

Q) Moving on to the next variant: G5C C6U G8C C9U U10C A47U G48U
A) n

Q) Try the variant G5C C6U G8C C9U U10C A25G G26U
A) y

Q) Query G5C C6G U7C U10C A35C C36A next
A) y

Q) Could you do the same for G5A U7C G8A U10C A39C , please?
A) n

Q) Try G5U G8U C9U U10C G11U next.
A) n

Q) Cool, now G2C G5A C6U U7A G8U C9A
A) n

Q) Note, next up: C16U U17A
A) n

Q) Quick one: G5A U7C G8A U10C C19U A20C
A) n

Q) Try the variant G5C C6U G8C C9U U10C G11C G12A
A) n

Q) Please answer likewise for G5C C6G U7C U10C G15C C16G
A) y

Q) C6A U7C C9A U10C A23G C24A ?
A) y

Q) How about this variant: C6A U7A C9A U10A G12U
A) n

Q) Also need G5U G8U C9U G26C U27G , thanks.
A) n

Q) Moving on to the next variant: C6A U7A C9A U10A A23U C24U
A) n

Q) Another variant: U4C G5U U7C G8A U10C
A) n

Q) Moving on to the next variant: G5C C6U G8C C9U U10C A37C G38A
A) n

Q) Consider next the variant G5C C6A U7C G8A U10A A29U in the same way.
A) n

Q) Note, next up: G5C C6U G8C C9U U10C A31G U32C
A) y

Q) Param item: G5C C6G U7C U10C A30G
A) y
